# Measurement description: gradient 5% acetonitrile 3 min, to 50% in 2 min, to 85% in 15 min, held 3 min, 100 µL/min
# Details: column: Zorbax Extend-C18 2.1 x 50 mm; eluents: water / acetonitrile, 0.1% formic acid
Value kind: RP-LC retention time (s)
Lab book: enter the figure in s, no units written.

>>> val("Cc1ccccc1-c1ccc(N2CCC(C(=O)NCc3ccco3)CC2)nn1")
605

-- ask Which value of RP-LC retention time has been reported for COc1ccc(NC(=O)N2CC=C(c3cn(C(C)C)c4ncccc34)CC2)cc1F in the records?
-- reply 920

-- ask Which value of RP-LC retention time has been reported for COc1ccc(N2CCN(c3cc(SCC(=O)Nc4cc(F)ccc4F)ncn3)CC2)cc1 in the records?
-- reply 1130

-- ask Which value of RP-LC retention time has been reported for Cc1noc(C)c1C1CCCN1C(=O)c1cccc(C#N)c1 (centres undefined) in the records?
-- reply 767

-- ask Which value of RP-LC retention time has been reported for COc1ccc(N2C=C(C(=O)N3CCOCC3)S(=O)(=O)c3ccccc32)cc1OC in the records?
-- reply 695

-- ask Which value of RP-LC retention time has been reported for CCc1noc(NC(C)=O)c1-c1ccc(C)c(S(=O)(=O)Nc2ccccc2)c1 in the records?
-- reply 719
